Assayed System: Epidermal growth factor receptor (Homo sapiens, UniProt P00533)
Sequence (P00533 whole entry): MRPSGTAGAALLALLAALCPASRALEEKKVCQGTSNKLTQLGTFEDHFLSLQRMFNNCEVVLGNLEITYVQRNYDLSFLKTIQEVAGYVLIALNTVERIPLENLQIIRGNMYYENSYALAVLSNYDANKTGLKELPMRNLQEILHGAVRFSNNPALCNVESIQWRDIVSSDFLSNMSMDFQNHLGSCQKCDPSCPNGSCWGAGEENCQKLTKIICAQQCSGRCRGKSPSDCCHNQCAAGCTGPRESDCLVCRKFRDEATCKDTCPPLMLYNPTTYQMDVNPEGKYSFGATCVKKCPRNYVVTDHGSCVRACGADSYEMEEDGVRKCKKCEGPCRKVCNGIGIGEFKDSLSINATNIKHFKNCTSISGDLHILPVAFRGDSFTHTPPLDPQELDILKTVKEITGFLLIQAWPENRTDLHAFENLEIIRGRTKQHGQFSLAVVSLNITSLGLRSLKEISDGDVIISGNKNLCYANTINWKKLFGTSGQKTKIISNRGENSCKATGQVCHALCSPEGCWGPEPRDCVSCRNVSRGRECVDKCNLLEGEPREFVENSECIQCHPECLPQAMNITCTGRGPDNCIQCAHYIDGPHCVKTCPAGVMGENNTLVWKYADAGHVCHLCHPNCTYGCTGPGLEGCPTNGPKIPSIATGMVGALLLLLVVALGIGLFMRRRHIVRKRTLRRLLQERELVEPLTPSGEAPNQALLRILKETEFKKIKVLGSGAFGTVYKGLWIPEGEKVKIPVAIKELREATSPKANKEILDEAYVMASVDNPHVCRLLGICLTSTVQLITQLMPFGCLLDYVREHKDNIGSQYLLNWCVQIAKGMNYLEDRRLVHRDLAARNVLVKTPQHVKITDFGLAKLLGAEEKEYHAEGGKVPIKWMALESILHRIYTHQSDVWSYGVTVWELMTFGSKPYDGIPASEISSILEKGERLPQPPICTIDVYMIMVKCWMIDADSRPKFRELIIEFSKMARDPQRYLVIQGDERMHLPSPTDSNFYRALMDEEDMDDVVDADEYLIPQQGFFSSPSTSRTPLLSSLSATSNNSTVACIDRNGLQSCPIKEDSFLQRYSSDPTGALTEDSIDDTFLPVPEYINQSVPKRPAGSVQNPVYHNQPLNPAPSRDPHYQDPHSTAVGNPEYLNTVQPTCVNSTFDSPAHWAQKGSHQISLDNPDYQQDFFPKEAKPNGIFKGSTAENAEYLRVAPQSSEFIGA
Experiment Notes: Inhibition of EGFR autophosphorylation in human A549 cells

Smiles Entry | IC50
O=C1NC(=O)N(CCc2ccccc2)/C1=C/c1ccc(O)cc1 | 19 µM

###

System: A549
Experiment Notes: Induction of p53 protein expression in human A549 cells at 20 uM after 48 hrs by Western blot relative to untreated control
Type: functional

Smiles Entry | fold change (FC)
O=C1NC(=O)N(CCc2ccccc2)/C1=C/c1cccc(O)c1 | 0.9
O=C1NC(=O)N(Cc2ccccc2)/C1=C\c1ccc(O)cc1 | 2
O=C1NC(=O)N(CCc2ccccc2)/C1=C/c1ccccc1 | 1.2
O=C1NC(=O)N(Cc2ccccc2)/C1=C/c1ccc(O)cc1 | 1.8
O=C1NC(=O)N(CCc2ccccc2)/C1=C\c1cccc(Cl)c1 | 1.2
O=C1NC(=O)N(CCc2cccc(Cl)c2)/C1=C\c1ccccc1 | 1.5
O=C1NC(=O)N(CCc2ccccc2)/C1=C\c1ccccc1 | 1.3
CN1C(=O)/C(=C/c2ccccc2)N(CCc2ccccc2)C1=O | 1
COc1ccc(/C=C2\C(=O)NC(=O)N2CCc2ccccc2)cc1 | 1
O=C1NC(=O)N(CCc2ccccc2)/C1=C\c1cccc(O)c1 | 1.1
CN1C(=O)/C(=C\c2ccccc2)N(CCc2ccccc2)C1=O | 1
CN1C(=O)NC(=O)/C1=C/c1ccccc1 | 1
O=C1NC(=O)N(CCc2ccccc2)/C1=C\c1ccc(O)cc1 | 1.5
CC(=O)Nc1ccc(/C=C2\C(=O)NC(=O)N2CCc2ccccc2)cc1 | 1.7
O=C1NC(=O)N(CCc2ccccc2)/C1=C/c1ccc(O)cc1 | 2.3
O=C1NC(=O)N(Cc2ccccc2)/C1=C\c1ccccc1 | 1.7
O=C1NC(=O)N(CCc2ccccc2)[C@@H]1Cc1ccccc1 | 1
CN1C(=O)NC(=O)/C1=C\c1ccccc1 | 1.1
